This collection of values is drawn from patent US20050164951A1.

target: human sEH (Homo sapiens, UniProt P34913); construct: made in house; host or cells: baculovirus expression system; assay: Inhibition of recombinant human sEH, IC50 assay with 4-nitrophenyl-trans-2,3-epoxy-3-phenylpropyl carbonate as substrate; assay type: biochemical; conditions: Table 5; […] enzyme, 5 min preincubation, pH 7.4, 30° C.; means ± SD; read-out: Human sEH IC50
Sequence (P34913 whole entry): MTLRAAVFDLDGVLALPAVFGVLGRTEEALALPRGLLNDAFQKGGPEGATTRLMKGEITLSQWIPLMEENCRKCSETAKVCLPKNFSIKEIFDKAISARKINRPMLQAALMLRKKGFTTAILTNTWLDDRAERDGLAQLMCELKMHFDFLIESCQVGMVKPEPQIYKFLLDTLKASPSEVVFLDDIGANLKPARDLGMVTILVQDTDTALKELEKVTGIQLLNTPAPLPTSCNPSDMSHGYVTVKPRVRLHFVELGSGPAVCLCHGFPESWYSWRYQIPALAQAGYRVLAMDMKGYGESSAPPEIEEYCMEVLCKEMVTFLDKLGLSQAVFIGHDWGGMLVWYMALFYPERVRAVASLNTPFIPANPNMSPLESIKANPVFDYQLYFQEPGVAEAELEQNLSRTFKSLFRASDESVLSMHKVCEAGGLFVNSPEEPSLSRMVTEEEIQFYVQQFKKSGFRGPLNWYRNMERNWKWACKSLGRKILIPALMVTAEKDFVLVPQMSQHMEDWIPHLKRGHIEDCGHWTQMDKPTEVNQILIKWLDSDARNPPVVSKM
PARAMETER: pIC50
Conceptually, pIC50 converts a concentration in mol/L into minus its log10.

A selection of reference data follows.
CCOC(=O)CCCCCCCCCCCOC(=O)CCCNC(=O)NC12CC3CC(CC(C3)C1)C2 [Compound 882] : 7.00
CCOC(=O)CCCCCCCOC(=O)CCCNC(=O)NC12CC3CC(CC(C3)C1)C2 [Compound 879] : 6.96
CCOC(=O)CCCOC(=O)CCCNC(=O)NC12CC3CC(CC(C3)C1)C2 [Compound 858] : 6.92
CCOC(=O)COC(=O)CCCNC(=O)NC12CC3CC(CC(C3)C1)C2 [Compound 857] : 6.41
CCOC(=O)CCOC(=O)CCCNC(=O)NC12CC3CC(CC(C3)C1)C2 [Compound 876] : 6.27
CCOC(=O)CCCCCCOC(=O)CCCNC(=O)NC12CC3CC(CC(C3)C1)C2 [Compound 878] : 6.92
CCOC(=O)CCCCCCCCCOC(=O)CCCNC(=O)NC12CC3CC(CC(C3)C1)C2 [Compound 880] : 7.00
CCOC(=O)CCCCOC(=O)CCCNC(=O)NC12CC3CC(CC(C3)C1)C2 [Compound 877] : 6.89

In the following, a different compound is considered.
Reported pIC50 for human sEH (Homo sapiens, UniProt P34913), given CCOC(=O)CCCCCCCCCCOC(=O)CCCNC(=O)NC12CC3CC(CC(C3)C1)C2 [Compound 881] ?
7.00

* * *

Biological target: mouse sEH (Mus musculus, UniProt P34914)
Construct: made in house; host or cells: baculovirus expression system
Sequence (P34914 1-554): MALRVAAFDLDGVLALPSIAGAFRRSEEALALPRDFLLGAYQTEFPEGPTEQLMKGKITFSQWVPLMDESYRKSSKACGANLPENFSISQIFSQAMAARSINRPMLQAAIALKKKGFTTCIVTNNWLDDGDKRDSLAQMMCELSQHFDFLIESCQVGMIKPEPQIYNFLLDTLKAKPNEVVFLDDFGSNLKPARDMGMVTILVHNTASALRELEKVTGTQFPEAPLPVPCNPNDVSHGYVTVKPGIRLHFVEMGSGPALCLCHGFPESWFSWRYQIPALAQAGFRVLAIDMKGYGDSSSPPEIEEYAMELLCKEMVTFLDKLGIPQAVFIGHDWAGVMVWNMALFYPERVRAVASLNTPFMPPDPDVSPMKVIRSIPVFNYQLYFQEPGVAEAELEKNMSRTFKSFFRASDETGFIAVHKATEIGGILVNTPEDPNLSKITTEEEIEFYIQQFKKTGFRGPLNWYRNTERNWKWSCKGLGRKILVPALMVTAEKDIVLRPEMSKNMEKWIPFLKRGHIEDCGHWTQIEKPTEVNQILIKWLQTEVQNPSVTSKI
Assay: Inhibition of recombinant mouse sEH, IC50 assay with 4-nitrophenyl-trans-2,3-epoxy-3-phenylpropyl carbonate as substrate
Type: biochemical
Conditions: Tables 17a and b; read-out: IC50 (μM) Mouse sEH
Measured IC50, listed per entry for reference.
Form field: result (number plus unit)

Reported IC50 for mouse sEH (Mus musculus, UniProt P34914), given O=C(CC1CCCCC1)Nc1cccc(Cl)c1 ?
0.58 µM

Reported IC50 for mouse sEH (Mus musculus, UniProt P34914), given CC(C)c1cccc2c(S(=O)(=O)NCCCOCCCCCNC(=O)NC34CC5CC(CC(C5)C3)C4)cccc12 ?
0.05 µM

Reported IC50 for mouse sEH (Mus musculus, UniProt P34914), given CC(C)OCCOCCOCCCCCNC(=O)NC12CC3CC(CC(C3)C1)C2 ?
0.05 µM

Reported IC50 for mouse sEH (Mus musculus, UniProt P34914), given CCCCCNC(=O)NC(CO)c1ccccc1 (stereo not drawn) ?
11 µM

Reported IC50 for mouse sEH (Mus musculus, UniProt P34914), given CN(C)c1cccc2c(S(=O)(=O)NCCNC(=O)NC34CC5CC(CC(C5)C3)C4)cccc12 ?
0.4 µM
